Read-out: Monocyte Chemoattractant Protein-1 (MCP1), CCL2 (gene 6347)
Assay: BSK_3C_MCP1: BioMAP Diversity Plus: 3C Assay for Monocyte Chemoattractant Protein-1 (MCP1) Biomarker Activity (AID 2283017)
Details: primary human endothelial cells (HUVEC); actives raise or lower the signal
Active and inactive are the calls of the source. How the source made its calls: active means hit-call score of the fitted dose curve at least 0.9, where 1 is the maximum; inactive means score below 0.9.
Form entry, call: pick from class 1 for active, class 0 for inactive

Some solved entries appear below for comparison.
{"molecule": "c1ccc(-c2cccc(-c3ccccc3)c2)cc1", "class_label": "class 1"}
{"molecule": "C=CC(Cl)CCl (stereo unspecified)", "class_label": "class 0"}
{"molecule": "COCC(=O)N(c1c(C)cccc1C)[C@H](C)C(=O)OC", "class_label": "class 0"}
{"molecule": "Oc1cc(Cl)c(Cl)cc1Cl", "class_label": "class 1"}

Request: Give the logged outcome of this assay for the following molecule: CCC(C)(C#N)N=NC(C)(C#N)CC (stereo unspecified)
Response: class 0

Request: Give the logged outcome of this assay for the following molecule: NC(=O)CCl
Response: class 0

Request: Give the logged outcome of this assay for the following molecule: CCOP(=S)(OCC)SCS(=O)(=O)C(C)(C)C
Response: class 0

Request: Give the logged outcome of this assay for the following molecule: OC(Cc1ccccc1Cl)(Cn1[nH]cnc1=S)C1(Cl)CC1 (stereo unspecified)
Response: class 0

Request: Give the logged outcome of this assay for the following molecule: CCN(CC)C(=O)C(Cl)=C(C)OP(=O)(OC)OC
Response: class 0

---

Target: CCAAT/enhancer-binding protein beta (Homo sapiens) (UniProt P17676)
Sequence (P17676 whole entry, looked up): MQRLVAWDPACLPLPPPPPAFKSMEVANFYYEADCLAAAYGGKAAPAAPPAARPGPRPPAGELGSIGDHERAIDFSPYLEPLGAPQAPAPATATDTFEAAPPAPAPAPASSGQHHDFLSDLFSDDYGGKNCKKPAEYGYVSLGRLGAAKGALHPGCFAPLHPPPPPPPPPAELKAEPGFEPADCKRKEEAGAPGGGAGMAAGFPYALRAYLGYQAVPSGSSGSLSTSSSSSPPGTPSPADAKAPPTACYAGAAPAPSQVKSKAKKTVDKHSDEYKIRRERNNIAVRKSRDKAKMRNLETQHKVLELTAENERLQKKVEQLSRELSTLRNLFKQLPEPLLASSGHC
Assay: ATG_C_EBP_CIS: Attagene CIS-FACTORIAL HepG2 Assay for human CCAAT/Enhancer Binding Protein (C/EBP) beta (AID 2282927)
Conditions: HepG2 Attagene cis-factorial transcription factor reporter; actives raise or lower the signal
Activity calls are given as the source filed them. How the source made its calls: active means hit-call score of the fitted dose curve at least 0.9, where 1 is the maximum; inactive means score below 0.9.
Form entry, call: pick from active, inactive

Some solved entries appear below for comparison.
{"compound": "FC(F)OCC(F)(F)C(F)(F)F", "tgt": "CCAAT/enhancer-binding protein beta (Homo sapiens) (UniProt P17676)", "class_label": "inactive"}
{"compound": "CC1(C)[C@H](C(=O)O[C@H](C#N)c2cccc(Oc3ccccc3)c2)[C@@H]1/C=C(\\Cl)C(F)(F)F", "tgt": "CCAAT/enhancer-binding protein beta (Homo sapiens) (UniProt P17676)", "class_label": "inactive"}
{"compound": "CC(C)=CC1C(C(=O)OCc2cccc(Oc3ccccc3)c2)C1(C)C (configuration not stated)", "tgt": "CCAAT/enhancer-binding protein beta (Homo sapiens) (UniProt P17676)", "class_label": "inactive"}

Request: Give the logged outcome of this assay for the following compound: Oc1c(Cl)cc(Cl)cc1Cl
Response: inactive

Request: Give the logged outcome of this assay for the following compound: CCOP(=O)(OCC)OC(=CCl)c1ccc(Cl)cc1Cl
Response: inactive

Request: Give the logged outcome of this assay for the following compound: Clc1cccc(Cl)c1Cl
Response: inactive

Request: Give the logged outcome of this assay for the following compound: C=CCCl
Response: inactive

Request: Give the logged outcome of this assay for the following compound: CCOP(=S)(OCC)SCS(=O)(=O)C(C)(C)C
Response: inactive

Request: Give the logged outcome of this assay for the following compound: CC(C)(C)c1ccccc1O
Response: active

---

Target: Myc proto-oncogene protein (Homo sapiens) (UniProt P01106)
Sequence (P01106 whole entry, looked up): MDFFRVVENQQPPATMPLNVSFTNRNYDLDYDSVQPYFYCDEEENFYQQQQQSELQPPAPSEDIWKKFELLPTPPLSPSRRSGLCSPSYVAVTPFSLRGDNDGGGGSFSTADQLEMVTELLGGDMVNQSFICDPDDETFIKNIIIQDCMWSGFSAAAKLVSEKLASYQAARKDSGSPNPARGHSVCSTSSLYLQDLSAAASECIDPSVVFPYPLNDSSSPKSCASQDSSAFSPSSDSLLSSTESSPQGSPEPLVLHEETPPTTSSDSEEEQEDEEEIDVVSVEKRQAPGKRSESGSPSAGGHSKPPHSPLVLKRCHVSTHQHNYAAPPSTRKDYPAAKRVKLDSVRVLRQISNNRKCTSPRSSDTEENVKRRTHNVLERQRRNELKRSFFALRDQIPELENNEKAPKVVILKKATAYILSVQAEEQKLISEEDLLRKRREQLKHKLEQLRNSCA
Test: ATG_Myc_CIS: Attagene CIS-FACTORIAL HepG2 Assay for human Myelocytomatosis (Myc) Proto-Oncogene Transcription Factor (AID 2282990)
Details: HepG2, Attagene cis-reporter transcription factor activity; actives raise or lower the signal
Procedure: ATG_CIS is a cell-based, multiplexed-readout assay that uses HepG2, a human liver cell line, with measurements taken at 24 hours after chemical dosing in a 24-well plate.ATG_Myc_CIS is one of 52 assay component(s) measured or calculated from the ATG_CIS assay. […] This assay endpoint, ATG_Myc_CIS, was analyzed with bidirectional fitting relative to DMSO as the negative control and baseline of activity. […]
Calls of active or inactive are those of the source. How the source made its calls: active means hit-call score of the fitted dose curve at least 0.9, where 1 is the maximum; inactive means score below 0.9.
endpoint_name: AC50

Some compounds with recorded AC50:
{"compound": "Oc1ccc(Cc2ccc(O)cc2)cc1", "AC50": "inactive"}
{"compound": "COCCl", "AC50": "inactive"}
{"compound": "CCCSP(=S)(OCC)Oc1ccc(Cl)cc1Cl (stereo not drawn)", "AC50": "inactive"}
{"compound": "CCOP(=O)(OCC)SCCSCC", "AC50": "inactive"}
{"compound": "C[N+](C)(C)Cc1ccccc1", "AC50": "inactive"}

We now examine a further compound.
Request: Entry c1ccc2c(c1)Oc1ccccc1O2 : reported AC50 = ?
Response: inactive
